tested on: Collagen 2A1; assay: Stem cell chondrogenesis, real time PCR gene expression: Collagen 2A1; format: cell-based, human; conditions: Day 7; vs Actin; triplicate wells
Below, each entry is listed alongside its reported Mean ΔCp, Collagen 2A1.

Reference set (3 entries):
Supply recorded Mean ΔCp, Collagen 2A1 for `CC(=O)N[C@@H](Cc1c[nH]c2ccccc12)C(=O)O` here.
7.063

Supply recorded Mean ΔCp, Collagen 2A1 for CCCCCCCC(=O)[O-].[Na+] [Caprylate, sodium caprylate] here.
6.573

Supply recorded Mean ΔCp, Collagen 2A1 for CC(=O)OCC(=O)[C@@]1(O)[C@H](C)C[C@H]2[C@@H]3CCC4=CC(=O)C=C[C@]4(C)[C@@]3(F)[C@@H](O)C[C@@]21C [Dexamethasone, Dexamethasone acetate] here.
5.797

---
Supply recorded Mean ΔCp, Collagen 2A1 for `C[C@@H]1NC(=O)[C@H](CC(=O)O)NC1=O` here.
6.993

Supply recorded Mean ΔCp, Collagen 2A1 for `CC#C[C@]1(O)CC[C@H]2[C@@H]3CCC4=CC(=O)CCC4=C3[C@@H](c3ccc(N(C)C)cc3)C[C@@]21C` here.
7.433

###

test system: SOX9; test: Stem cell chondrogenesis, real time PCR gene expression: SOX9; format: cell-based, human; settings: Day 14; fold regulation vs saline; triplicate wells
Below, each entry is listed alongside its reported Mean regulation, SOX9.
Simply state the number, no unit and no words.

Reference set (4 entries):
Supply recorded Mean regulation, SOX9 for CCCCCCCC(=O)[O-].[Na+] [Caprylate, sodium caprylate] here.
1.81

Supply recorded Mean regulation, SOX9 for `C[C@@H]1NC(=O)[C@H](CC(=O)O)NC1=O` here.
0.19

Supply recorded Mean regulation, SOX9 for `CC(=O)N[C@@H](Cc1c[nH]c2ccccc12)C(=O)O` here.
0.62

Supply recorded Mean regulation, SOX9 for `CC#C[C@]1(O)CC[C@H]2[C@@H]3CCC4=CC(=O)CCC4=C3[C@@H](c3ccc(N(C)C)cc3)C[C@@]21C` here.
1.19

Let us examine a further case.
Supply recorded Mean regulation, SOX9 for CC(=O)OCC(=O)[C@@]1(O)[C@H](C)C[C@H]2[C@@H]3CCC4=CC(=O)C=C[C@]4(C)[C@@]3(F)[C@@H](O)C[C@@]21C [Dexamethasone, Dexamethasone acetate] here.
−1.69

###

test system: Aggrecan; assay: Stem cell chondrogenesis, real time PCR gene expression: Aggrecan; type: cell-based, human; settings: Aggrecan; Day 22; vs saline; Table 12
Criterion: Mean regulation meeting or surpassing 10. Met: Criterion met. Not met: Criterion not met.

Reported Mean regulation at or above 10? CCCCCCCC(=O)[O-].[Na+] [Caprylate, sodium caprylate]
Criterion met

---
Reported Mean regulation at or above 10? CC(=O)OCC(=O)[C@@]1(O)[C@H](C)C[C@H]2[C@@H]3CCC4=CC(=O)C=C[C@]4(C)[C@@]3(F)[C@@H](O)C[C@@]21C [Dexamethasone, Dexamethasone acetate]
Criterion met

Reported Mean regulation at or above 10? `CC#C[C@]1(O)CC[C@H]2[C@@H]3CCC4=CC(=O)CCC4=C3[C@@H](c3ccc(N(C)C)cc3)C[C@@]21C`
Criterion not met

Reported Mean regulation at or above 10? `C[C@@H]1NC(=O)[C@H](CC(=O)O)NC1=O`
Criterion met

Reported Mean regulation at or above 10? `CC(=O)N[C@@H](Cc1c[nH]c2ccccc12)C(=O)O`
Criterion met

###

tested on: MMP13; assay: Stem cell chondrogenesis, real time PCR gene expression: MMP13; format: cell-based, human; conditions: MMP13 vs GAPDH; Day 22; Table 16
Criterion: Mean ΔCp meeting or surpassing 3. Met: True. Not met: False.

Please review the entries below; each comes with its answer.
Reported Mean ΔCp at or above 3? CCCCCCCC(=O)[O-].[Na+] [Caprylate, sodium caprylate]
False

Reported Mean ΔCp at or above 3? CC#C[C@]1(O)CC[C@H]2[C@@H]3CCC4=CC(=O)CCC4=C3[C@@H](c3ccc(N(C)C)cc3)C[C@@]21C [Mifepristone, mifepristone]
True

Could you now look at the following compound, please?
Reported Mean ΔCp at or above 3? CC(=O)OCC(=O)[C@@]1(O)[C@H](C)C[C@H]2[C@@H]3CCC4=CC(=O)C=C[C@]4(C)[C@@]3(F)[C@@H](O)C[C@@]21C [Dexamethasone, Dexamethasone acetate]
True

###

test system: Aggrecan; test: Stem cell chondrogenesis, real time PCR gene expression: Aggrecan; type: cell-based, human; conditions: Aggrecan vs Actin; Day 22; Table 16
Doc: threshold 7 (exclusive). Items with Mean ΔCp beneath it return TRUE; others return FALSE.

Please review the entries below; each comes with its answer.
Please indicate whether the reported Mean ΔCp of `C[C@@H]1NC(=O)[C@H](CC(=O)O)NC1=O` is strictly below 7.
FALSE

Please indicate whether the reported Mean ΔCp of CCCCCCCC(=O)[O-].[Na+] [Caprylate, sodium caprylate] is strictly below 7.
FALSE

Please indicate whether the reported Mean ΔCp of CC(=O)OCC(=O)[C@@]1(O)[C@H](C)C[C@H]2[C@@H]3CCC4=CC(=O)C=C[C@]4(C)[C@@]3(F)[C@@H](O)C[C@@]21C [Dexamethasone, Dexamethasone acetate] is strictly below 7.
TRUE

---
Please indicate whether the reported Mean ΔCp of `CC#C[C@]1(O)CC[C@H]2[C@@H]3CCC4=CC(=O)CCC4=C3[C@@H](c3ccc(N(C)C)cc3)C[C@@]21C` is strictly below 7.
FALSE

###

test system: Aggrecan; assay: Stem cell chondrogenesis, real time PCR gene expression: Aggrecan; assay type: cell-based, human; settings: Aggrecan; Day 22; vs saline; Table 16
Attribute Measured: Mean regulation

Reference set (3 entries):
Supply recorded Mean regulation for `CC(=O)N[C@@H](Cc1c[nH]c2ccccc12)C(=O)O` here.
11.66

Supply recorded Mean regulation for CC(=O)OCC(=O)[C@@]1(O)[C@H](C)C[C@H]2[C@@H]3CCC4=CC(=O)C=C[C@]4(C)[C@@]3(F)[C@@H](O)C[C@@]21C [Dexamethasone, Dexamethasone acetate] here.
13.03

Supply recorded Mean regulation for `C[C@@H]1NC(=O)[C@H](CC(=O)O)NC1=O` here.
10.65

---
Supply recorded Mean regulation for `CC#C[C@]1(O)CC[C@H]2[C@@H]3CCC4=CC(=O)CCC4=C3[C@@H](c3ccc(N(C)C)cc3)C[C@@]21C` here.
1.55

Supply recorded Mean regulation for CCCCCCCC(=O)[O-].[Na+] [Caprylate, sodium caprylate] here.
10.81

###

system: Collagen 2A1; test: Stem cell chondrogenesis, real time PCR gene expression: Collagen 2A1; assay type: cell-based, human; conditions: Day 14; vs Actin; triplicate wells
Attribute Measured: Mean ΔCp, Collagen 2A1
Simply state the number, no unit and no words.

Reference set (4 entries):
# return Mean ΔCp, Collagen 2A1 of `CC#C[C@]1(O)CC[C@H]2[C@@H]3CCC4=CC(=O)CCC4=C3[C@@H](c3ccc(N(C)C)cc3)C[C@@]21C` (system: Collagen 2A1)
10.72

# return Mean ΔCp, Collagen 2A1 of `CC(=O)N[C@@H](Cc1c[nH]c2ccccc12)C(=O)O` (system: Collagen 2A1)
9.72

# return Mean ΔCp, Collagen 2A1 of CCCCCCCC(=O)[O-].[Na+] [Caprylate, sodium caprylate] (system: Collagen 2A1)
8.477

# return Mean ΔCp, Collagen 2A1 of `C[C@@H]1NC(=O)[C@H](CC(=O)O)NC1=O` (system: Collagen 2A1)
10.43

Let us examine a further case.
# return Mean ΔCp, Collagen 2A1 of CC(=O)OCC(=O)[C@@]1(O)[C@H](C)C[C@H]2[C@@H]3CCC4=CC(=O)C=C[C@]4(C)[C@@]3(F)[C@@H](O)C[C@@]21C [Dexamethasone, Dexamethasone acetate] (system: Collagen 2A1)
8.07
